# Tested on: Collinsella aerofaciens
# Protocol notes: growth AUC relative to DMSO control (median of replicates) (fraction); higher = more growth (less inhibition), active = hit call of the paper
# Study conditions: 20 µM; 24 h
Measured property: growth AUC

Compound	Assayed system	Value observed
COP(=O)(OC)O/C(=C/Br)c1ccc(Cl)cc1Cl	Collinsella aerofaciens	1
CN(C)C(CSS(=O)(=O)[O-])CSS(=O)(=O)[O-].[Na+].[Na+]	Collinsella aerofaciens	0.969
Nc1ncn[nH]1	Collinsella aerofaciens	0.995
CC1(C)CON(Cc2ccccc2Cl)C1=O	Collinsella aerofaciens	0.947
CCCCCCCCSC(=O)Oc1cc(Cl)nnc1-c1ccccc1	Collinsella aerofaciens	0.973
CNC(=O)c1cc(C#N)cc(C)c1NC(=O)c1cc(Br)nn1-c1ncccc1Cl	Collinsella aerofaciens	0.981
CCOCCN(C(=O)CCl)C(=C(C)C)c1ccccc1	Collinsella aerofaciens	1.02
CCCCC(C#N)(Cn1cncn1)c1ccc(Cl)cc1 (stereo not given)	Collinsella aerofaciens	0.959
CON(C)C(=O)Nc1ccc(Cl)c(Cl)c1	Collinsella aerofaciens	1.06
OC(Cc1ccccc1Cl)(Cn1[nH]cnc1=S)C1(Cl)CC1 (stereo not given)	Collinsella aerofaciens	1.04
O=C(O)C(F)(F)C(F)(F)C(F)(F)C(F)(F)C(F)(F)C(F)(F)C(F)(F)C(F)(F)C(F)(F)F	Collinsella aerofaciens	0.984
COP(=S)(OC)Oc1ccc(C#N)cc1	Collinsella aerofaciens	1.01
Cc1ccccc1C(=O)Nc1cccc(OC(C)C)c1	Collinsella aerofaciens	1
CCOP(=O)(Sc1ccccc1)Sc1ccccc1	Collinsella aerofaciens	1.03
ClC1=C(Cl)C(Cl)(C2(Cl)C(Cl)=C(Cl)C(Cl)=C2Cl)C(Cl)=C1Cl	Collinsella aerofaciens	0.823
CCCSP(=S)(OCC)Oc1ccc(SC)cc1 (stereo not given)	Collinsella aerofaciens	1.04
CC1(C)C(C=C(Cl)Cl)C1C(=O)OCc1cccc(Oc2ccccc2)c1 (mixture of isomers)	Collinsella aerofaciens	0.942
C=CCC1=C(C)C(OC(=O)C2C(C=C(C)C)C2(C)C)CC1=O (stereo not given)	Collinsella aerofaciens	0.957
CCOC(=O)OC1=C(c2cc(C)ccc2C)C(=O)NC12CCC(OC)CC2 (stereo not given)	Collinsella aerofaciens	0.997
CS(=O)(=O)c1ccc(C(=O)C2C(=O)CCCC2=O)c([N+](=O)[O-])c1	Collinsella aerofaciens	0.972

---

# Tested on: Lactobacillus paracasei
# Protocol notes: growth AUC relative to DMSO control (median of replicates) (fraction); higher = more growth (less inhibition), active = hit call of the paper
# Study conditions: 20 µM; 24 h
Catalogue of growth AUC readings, one per entry.
Measured property: growth AUC

Molecule	Assayed system	Value observed
Oc1c(Br)cc(Br)cc1Br	Lactobacillus paracasei	0.919
CC1(C)C(/C=C(\Cl)c2ccc(Cl)cc2)C1C(=O)OC(C#N)c1ccc(F)c(Oc2ccccc2)c1 (stereo not drawn)	Lactobacillus paracasei	0.913
CNC(=O)O/N=C(\SC)C(=O)N(C)C	Lactobacillus paracasei	0.883
